Data credit: the supplement of paper PMC10899765

System: MCF10A
Assay: one-nucleolus phenotype percent effect (relative to siNT 0% and siNOL11 100%); higher = more cells with one nucleolus (ribosome biogenesis inhibition)
Conditions: 20 nM; 72 h
Readout: one-nucleolus phenotype percent effect
Answer with the number, then the unit.

Using the record for UACGUAGAUAUAUAUGUAUUUU [hsa-miR-1277-3p] , report its one-nucleolus phenotype percent effect. -20.9%

Using the record for UGUGAUAUCAUGGUUCCUGGGA [hsa-miR-3689e] , report its one-nucleolus phenotype percent effect. 4.57%

Using the record for UGGGAAUGGGGGUAAGGGCC [hsa-miR-6716-5p] , report its one-nucleolus phenotype percent effect. 19.7%

Using the record for UGGGGCGGGGCAGGUCCCUGC [hsa-miR-6816-5p] , report its one-nucleolus phenotype percent effect. -19%

Using the record for UCUGCCAUCCUCCCUCCCCUAC [hsa-miR-4769-3p] , report its one-nucleolus phenotype percent effect. -18%

Next:
Using the record for CCAAGGAAGGAGGCUGGACAUC [hsa-miR-6830-5p] , report its one-nucleolus phenotype percent effect. 13.3%

Using the record for ACUGAUUAUCUUAACUCUCUGA [hsa-miR-3920] , report its one-nucleolus phenotype percent effect. -37.8%

Using the record for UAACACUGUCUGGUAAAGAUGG [hsa-miR-141-3p] , report its one-nucleolus phenotype percent effect. -19.9%

Using the record for CAAAGACUGCAAUUACUUUUGCG [hsa-miR-548u] , report its one-nucleolus phenotype percent effect. -31.1%

====

Tested on: MCF10A
Assay: percent viability (nuclei count relative to siNT); higher = more viable cells
Settings: 20 nM; 72 h
Threshold 70%: percent viability strictly smaller gives Yes, otherwise No.

Would you please look over these solved cases?
Decide: percent viability of GGCUACAACACAGGACCCGGGC [hsa-miR-187-5p] strictly below 70%? No

Decide: percent viability of GGCUGGAGCGAGUGCAGUGGUG [hsa-miR-3135b] strictly below 70%? Yes

Decide: percent viability of CAGGUCACGUCUCUGCAGUUAC [hsa-miR-370-5p] strictly below 70%? Yes

Next:
Decide: percent viability of ACCUUGGCUCUAGACUGCUUACU [hsa-miR-212-5p] strictly below 70%? Yes

Decide: percent viability of UCAGGCAAAGGGAUAUUUACAGA [hsa-miR-4742-5p] strictly below 70%? Yes

Decide: percent viability of AGAUGUCCAGCCACAAUUCUCG [hsa-miR-2964a-5p] strictly below 70%? Yes

Decide: percent viability of UGAGGGAGUAGGAUGUAUGGUU [hsa-miR-4510] strictly below 70%? Yes

Decide: percent viability of UAGAUAAAAUAUUGGUACCUG [hsa-miR-577] strictly below 70%? No

Decide: percent viability of UGCAUCACAGCCUUUGGCCCUAG [hsa-miR-7112-3p] strictly below 70%? Yes

====

Tested on: MCF10A
Experiment: one-nucleolus phenotype percent effect (relative to siNT 0% and siNOL11 100%); higher = more cells with one nucleolus (ribosome biogenesis inhibition)
Settings: 20 nM; 72 h
Readout: one-nucleolus phenotype percent effect (%)
// units = %; emit number, no label

Example cases with answers are listed next.
Using the record for UGUAGGAACAGUUGAAUUUUGGCU [hsa-miR-8065] , report its one-nucleolus phenotype percent effect. -24.6

Using the record for CAGCAGUCCCUCCCCCUG [hsa-miR-4274] , report its one-nucleolus phenotype percent effect. 6.47

Using the record for CUCGGGAGGGCAUGGGCCAGGC [hsa-miR-6771-5p] , report its one-nucleolus phenotype percent effect. -0.506

Using the record for AAAGUGCUUCCUUUUUGAGGG [hsa-miR-520e] , report its one-nucleolus phenotype percent effect. -14.9

Using the record for UCAAAAUCAGGAGUCGGGGCUU [hsa-miR-8063] , report its one-nucleolus phenotype percent effect. -23.1

Proceed to the following item.
Using the record for UCCCUGAGACCCUAACUUGUGA [hsa-miR-125b-5p] , report its one-nucleolus phenotype percent effect. -11.8

====

# maps each entry to its one-nucleolus phenotype percent effect
Test system: MCF10A
Test: one-nucleolus phenotype percent effect (relative to siNT 0% and siNOL11 100%); higher = more cells with one nucleolus (ribosome biogenesis inhibition)
Conditions: 20 nM; 72 h
// units = %; emit number, no label

Using the record for UGCCCAUGCCAUACUUUUGCCUCA [hsa-miR-4641] , report its one-nucleolus phenotype percent effect. 5.53

Proceed to the following item.
Using the record for CUUCCCCCCAGUAAUCUUCAUC [hsa-miR-3679-3p] , report its one-nucleolus phenotype percent effect. 4.01

====

Test system: MCF10A
Experiment: 5+ nucleoli phenotype percent effect (relative to siNT 0% and siKIF11 100%); higher = more cells with five or more nucleoli
Settings: 20 nM; 72 h
# maps each entry to its 5+ nucleoli phenotype percent effect
// units = %; emit number, no label

Example cases with answers are listed next.
Using the record for AGGCCUGUGGCUCCUCCCUCAG [hsa-miR-6735-3p] , report its 5+ nucleoli phenotype percent effect. 15.7

Using the record for UCACAACAACCUUGCAGGGUAGA [hsa-miR-5003-5p] , report its 5+ nucleoli phenotype percent effect. 16.9

Using the record for UUCACCACCUUCUCCACCCAGC [hsa-miR-197-3p] , report its 5+ nucleoli phenotype percent effect. -10

Using the record for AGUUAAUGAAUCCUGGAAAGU [hsa-miR-569] , report its 5+ nucleoli phenotype percent effect. -15.9

Next:
Using the record for UCUUGGAGUAGGUCAUUGGGUGG [hsa-miR-432-5p] , report its 5+ nucleoli phenotype percent effect. -33.5

====

System: MCF10A
Assay: one-nucleolus phenotype percent effect (relative to siNT 0% and siNOL11 100%); higher = more cells with one nucleolus (ribosome biogenesis inhibition)
Details: 20 nM; 72 h
Readout: one-nucleolus phenotype percent effect (%)
// units = %; emit number, no label

Example cases with answers are listed next.
Using the record for AAAGACCGUGACUACUUUUGCA [hsa-miR-548ao-3p] , report its one-nucleolus phenotype percent effect. 18.2

Using the record for CAGGGCCCUGGCUUUAGCAGA [hsa-miR-7160-3p] , report its one-nucleolus phenotype percent effect. 14.8

Using the record for UACUGCAGACGUGGCAAUCAUG [hsa-miR-509-3-5p] , report its one-nucleolus phenotype percent effect. 26.3

Using the record for ACUCAUUCUCCUCUGUCCAG [hsa-miR-6758-3p] , report its one-nucleolus phenotype percent effect. -26.2

Using the record for UUGAUCUCGGAAGCUAAGC [hsa-miR-7641] , report its one-nucleolus phenotype percent effect. -20.1

Using the record for GGGGAACUGUAGAUGAAAAGGC [hsa-miR-8059] , report its one-nucleolus phenotype percent effect. -28.4

Using the record for UGAGGUGACCGCAGAUGGGAA [hsa-miR-7854-3p] , report its one-nucleolus phenotype percent effect. 29.8

Using the record for ACGGAGACGACAAGACUGUGCUG [hsa-miR-5091] , report its one-nucleolus phenotype percent effect. 3.3

Next:
Using the record for CCCAGCAGGACGGGAGCG [hsa-miR-4530] , report its one-nucleolus phenotype percent effect. -26.2

====

# maps each entry to its one-nucleolus phenotype percent effect
System: MCF10A
Assay: one-nucleolus phenotype percent effect (relative to siNT 0% and siNOL11 100%); higher = more cells with one nucleolus (ribosome biogenesis inhibition)
Settings: 20 nM; 72 h
// units = %; emit number, no label

Using the record for CAACACCAGUCGAUGGGCUGU [hsa-miR-21-3p] , report its one-nucleolus phenotype percent effect. 35.5

Proceed to the following item.
Using the record for CAACAAAUCCCAGUCUACCUAA [hsa-miR-7-2-3p] , report its one-nucleolus phenotype percent effect. -10.8

====

# maps each entry to its 5+ nucleoli phenotype percent effect
Test system: MCF10A
Experiment: 5+ nucleoli phenotype percent effect (relative to siNT 0% and siKIF11 100%); higher = more cells with five or more nucleoli
Conditions: 20 nM; 72 h
// units = %; emit number, no label

Example cases with answers are listed next.
Using the record for CUUCUGCCUGCAUUCUACUCCCAG [hsa-miR-6738-3p] , report its 5+ nucleoli phenotype percent effect. -13.9

Using the record for GGGCUAGGGCCUGCUGCCCCC [hsa-miR-6069] , report its 5+ nucleoli phenotype percent effect. 21.6

Using the record for AGGUUACCCGAGCAACUUUGCAU [hsa-miR-409-5p] , report its 5+ nucleoli phenotype percent effect. -20.6

Next:
Using the record for AAAAGUGAUUGCAGUGUUUG [hsa-miR-548ah-5p] , report its 5+ nucleoli phenotype percent effect. 17.4

Using the record for AAGGCCCGGGCUUUCCUCCCAG [hsa-miR-4747-3p] , report its 5+ nucleoli phenotype percent effect. -14.1

====

System: MCF10A
Test: percent viability (nuclei count relative to siNT); higher = more viable cells
Conditions: 20 nM; 72 h
Threshold 50%: percent viability strictly smaller gives 1.0, otherwise 0.0.

Decide: percent viability of AAUGAGAGACCUGUACUGUAU [hsa-miR-4712-3p] strictly below 50%? 1.0
